Measured MIC values are reported for all entries that follow.
# System: Aureobasidium pullulans (APUL)
# test: Minimum inhibitory concentration (MIC), broth two-fold serial dilution test
# Assay type: cell-based
# measurement.context: Aureobasidium pullulans, M9G (minimal salts media with glucose); Table IIIa; read-out: MIC (F) APUL
quantity.kind: MIC (µg/mL)

1. C[C@H](NC(=O)OC(C)(C)C)C(=O)OCC#CI | 3
2. CC(C)(C)OC(=O)N[C@@H](CSCc1ccccc1)C(=O)OCC#CI | 3

====

Measured inhibition of growth at 25 ppm values are reported for all entries that follow.
# Test system: Rhizoctonia solani (RHI)
# test: In-vitro plant fungicide test
# Format: cell-based
# measurement.context: Rhizoctonia solani; 25 ppm; Table IVb; read-out: % Control at (ppm) indicated RHI
Where a name gives a salt, the structure may show the parent alone.
quantity.kind: inhibition of growth at 25 ppm (%)

1) O=C(CN1C(=O)c2ccccc2C1=O)OCC#CI [Compound 30, N-phthaloylglycine iodopropargyl ester] | 100
2) CC(=O)NCC(=O)OCC#CI [Compound 28, N-acetylglycine iodopropargyl ester] | 100
3) C[C@H](N)C(=O)N[C@@H](COCc1ccccc1)C(=O)OCC#CI [Compound 19, trifluoroacetate] | 100
4) CC(C)(C)OC(=O)NCC(=O)OCC#CI [Compound 1] | 100

====

# System: 8 FUNGI
# test: Microbicides secondary test against 8 fungi on Mycophile Agar at pH 5.0 (Table VI)
# Format: cell-based
# Design: key: 1= no growth; 0= growth of the indicated fungi at dose indicated in ppm
# measurement.context: Aspergillus niger, 1.0 PPM
# Excerpt: The results of the minimum inhibitory concentration (MIC) tests of compounds of this invention are shown in Tables IIIa IIIb, IIIc, V, VI, VII, and VIII against the microorganisms shown in Table IX.
Measured ANIG growth values are reported for all entries that follow.
quantity.kind: ANIG growth

1. CC(=O)NCC(=O)OCC#CI [Compound 28, N-acetylglycine iodopropargyl ester] | 0
2. O=C(CNC(=O)OCc1ccccc1)OCC#CI [Compound 31] | 0
3. O=C(CN1C(=O)c2ccccc2C1=O)OCC#CI [Compound 30, N-phthaloylglycine iodopropargyl ester] | 0
4. O=CNCC(=O)OCC#CI [Compound 32, N-formylglycine iodopropargyl ester] | 0
5. C/C=C/C=C/C(=O)NCC(=O)OCC#CI [Compound 35, N-sorbylglycine iodopropargyl ester] | 1
6. O=C(CNC(=O)c1ccccc1)OCC#CI [Compound 29, N-benzoylglycine iodopropargyl ester] | 1
7. CCCCCCCC(=O)NCC(=O)OCC#CI [Compound 34, N-octanoylglycine iodopropargyl ester] | 1

====

# Tested on: Pythium ultimum (PYU)
# test: In-vitro plant fungicide test
# Assay type: cell-based
# measurement.context: Globisporangium ultimum; .4 ppm; Table IVb; read-out: % Control at (ppm) indicated PYU
Where a name gives a salt, the structure may show the parent alone.
Measured inhibition of growth at 0.4 ppm values are reported for all entries that follow.
quantity.kind: inhibition of growth at 0.4 ppm (%)

1) O=C(CN1C(=O)c2ccccc2C1=O)OCC#CI | 100
2) C[C@H](N)C(=O)N[C@@H](COCc1ccccc1)C(=O)OCC#CI [Compound 19, trifluoroacetate] | 0
3) CC(C)(C)OC(=O)NCC(=O)OCC#CI | 0
4) CC(=O)NCC(=O)OCC#CI | 0

====

Measured inhibition of growth at 25 ppm values are reported for all entries that follow.
# Test system: Botrytis cinerea (BOC)
# test: In-vitro plant fungicide test
# Assay type: cell-based
# measurement.context: Botrytis cinerea, 25 ppm; Table IVa; *=Phytotoxic; read-out: % Control at 25 ppm BOC
Where a name gives a salt, the structure may show the parent alone.
quantity.kind: inhibition of growth at 25 ppm (%)

1) C[C@@H](NC(=O)OC(C)(C)C)C(=O)OCC#CI | 100
2) CC(C)(C)OC(=O)N[C@@H](COCc1ccccc1)C(=O)OCC#CI | 0
3) CC(=O)NCC(=O)OCC#CI | 100
4) C[C@H](NC(=O)OC(C)(C)C)C(=O)N[C@H](C(=O)OCC#CI)[C@@H](C)OCc1ccccc1 | 0
5) C[C@H](N)C(=O)OCC#CI [Compound 8, trifluoroacetate] | 100
6) C[C@@H](N)C(=O)OCC#CI [Compound 24, trifluoroacetate] | 0
7) C[C@H](NC(=O)CNC(=O)OC(C)(C)C)C(=O)OCC#CI | 75
8) C[C@H](NC(=O)OC(C)(C)C)C(=O)OCC#CI | 100
9) O=C(CN1C(=O)c2ccccc2C1=O)OCC#CI | 100

All values here come from patent EP0414533A1.
